Biological target: Prostaglandin G/H synthase 1 (Ovis aries, UniProt P05979)
Sequence (P05979 whole entry): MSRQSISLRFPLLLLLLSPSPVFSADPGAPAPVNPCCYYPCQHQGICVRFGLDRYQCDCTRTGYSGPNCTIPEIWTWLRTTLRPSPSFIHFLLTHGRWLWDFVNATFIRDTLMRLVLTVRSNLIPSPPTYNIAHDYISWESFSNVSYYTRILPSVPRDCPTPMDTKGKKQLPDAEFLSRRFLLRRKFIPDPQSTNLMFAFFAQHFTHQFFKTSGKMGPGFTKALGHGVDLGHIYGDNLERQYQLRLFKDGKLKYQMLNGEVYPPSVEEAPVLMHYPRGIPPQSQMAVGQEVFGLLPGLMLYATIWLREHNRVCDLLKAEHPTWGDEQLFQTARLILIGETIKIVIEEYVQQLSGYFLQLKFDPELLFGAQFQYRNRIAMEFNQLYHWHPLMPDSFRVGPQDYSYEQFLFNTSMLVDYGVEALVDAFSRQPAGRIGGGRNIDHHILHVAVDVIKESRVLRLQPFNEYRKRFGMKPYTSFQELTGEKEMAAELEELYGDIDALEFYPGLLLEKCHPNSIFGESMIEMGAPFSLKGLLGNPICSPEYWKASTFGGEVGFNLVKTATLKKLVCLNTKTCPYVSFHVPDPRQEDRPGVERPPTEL
MEASURED METRIC: log10(IC50) (log10 of the value in µM)
Answers are given as log10 of IC50 in µM.

Below are worked cases with known answers.
{"STRUCTURE AS SMILES": "C/C(=C1/SC(N=C(N)N)=NC1=O)c1cc(C(C)(C)C)c(O)c(C(C)(C)C)c1", "TARGET SYSTEM": "Prostaglandin G/H synthase 1 (Ovis aries, UniProt P05979)", "MEAS VALUE": -0.34}
{"STRUCTURE AS SMILES": "CC(C)(C)c1cc(/C=C2\\SC(=S)NC2=O)cc(C(C)(C)C)c1O", "TARGET SYSTEM": "Prostaglandin G/H synthase 1 (Ovis aries, UniProt P05979)", "MEAS VALUE": 1.38}
{"STRUCTURE AS SMILES": "CC(C)(C)c1cc(/C=C2\\SC(N=C(N)N)=NC2=O)cc(C(C)(C)C)c1O", "TARGET SYSTEM": "Prostaglandin G/H synthase 1 (Ovis aries, UniProt P05979)", "MEAS VALUE": -2.21}
{"STRUCTURE AS SMILES": "CC(C)(C)c1cc(/C=C2\\OC(=O)NC2=O)cc(C(C)(C)C)c1O", "TARGET SYSTEM": "Prostaglandin G/H synthase 1 (Ovis aries, UniProt P05979)", "MEAS VALUE": -1.02}
{"STRUCTURE AS SMILES": "CC(C)(C)c1cc(/C=C2\\OC(N=C(N)N)=NC2=O)cc(C(C)(C)C)c1O", "TARGET SYSTEM": "Prostaglandin G/H synthase 1 (Ovis aries, UniProt P05979)", "MEAS VALUE": 0.08}

Reported log10(IC50), compound `CON(C)C1=NC(=O)/C(=C/c2cc(C(C)(C)C)c(O)c(C(C)(C)C)c2)S1` : ____
1.71

Name the reported log10(IC50) value associated with the compound `CC(C)(C)c1cc(/C=C2\NC(=S)NC2=O)cc(C(C)(C)C)c1O`
0.11

So what's the measured log10(IC50) for this one? `CC(C)(C)c1cc(/C=C2\SC(=O)NC2=O)cc(C(C)(C)C)c1O`
1.62

Suppose we examine the compound `CN1C(NC(=N)N)=NC(=O)/C1=C/c1cc(C(C)(C)C)c(O)c(C(C)(C)C)c1` ; what log10(IC50) value has been reported?
-1.57

Record request: log10(IC50) value, item `C=CCONC1=NC(=O)/C(=C/c2cc(C(C)(C)C)c(O)c(C(C)(C)C)c2)O1`
0.60
